Molecular target: Huh7 (Homo sapiens)
Assay: Cytotoxicity against human Huh7 cell line containing HCV genotype 1b replicon
pIC50: −log10 of the molar value.
measurementKind: pIC50

Given the entry "O=C(O)[C@@H]1CCCN1S(=O)(=O)c1cc(Cl)c(Cl)c(Cl)c1O" , report its measured pIC50.
< 4.00

These data points were gathered from BindingDB's records for doi:10.1021/jm060168g.
